Every entry's value here was drawn from patent US20080026996A1.

- ASSAY OVERVIEW: Rat serum stability studies (remaining active peptide by DiscoveRx cAMP on CHO-VPAC2 cells)
- Format: in vitro ADME
- Procedure: Store the aliquot with aprotinin at 4° C. Store the aliquot without aprotinin at 37° C. […] […] Incubate in room temperature for 30 minutes. Remove the supernatant. […] Incubate on the shaker (300 rpm) for 1 hour. Proceed as normal with the DiscoveRx kit. Include cAMP standards in column 12. Determine EC50 values from the cAMP assay data.
Where no end group is shown, it is not given here. [ ]: non-standard residue; d: D form. The star is where a group is joined. hArg = N=C(N)NCCCC[C@H](N)C(=O)O; Hexanoyl = CCCCCC(=O)*; Aib = CC(C)(N)C(=O)O
Rule: Rat Serum Stability (estimated purity in % after 18 hours) under 0.2% gives No, otherwise Yes.

Problem: Is the recorded value of Rat Serum Stability (estimated purity in % after 18 hours) equal to or greater than 0.2% for this substance? Hexanoyl-HSDAVFTDNYTRL[hArg]KQVAAKKYLQSIKNKRYGGPSSGAPPPS [Agonist P305]
Result: Yes

Problem: Is the recorded value of Rat Serum Stability (estimated purity in % after 18 hours) equal to or greater than 0.2% for this substance? Hexanoyl-HSDAVFTENYTRLRKQVAAKKYLQSIKNKRYGGPSSGAPPPS [Agonist P159]
Result: No

Problem: Is the recorded value of Rat Serum Stability (estimated purity in % after 18 hours) equal to or greater than 0.2% for this substance? Hexanoyl-HSDAVFTDNYTRLL[Aib]QVAA[Aib]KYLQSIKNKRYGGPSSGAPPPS [Agonist P317]
Result: Yes

Problem: Is the recorded value of Rat Serum Stability (estimated purity in % after 18 hours) equal to or greater than 0.2% for this substance? Hexanoyl-HSDAVFTDNYTRL[Aib]KQVAAVKYLQSIKNKRYGGPSSGAPPPS [Agonist P269]
Result: Yes

Problem: Is the recorded value of Rat Serum Stability (estimated purity in % after 18 hours) equal to or greater than 0.2% for this substance? Hexanoyl-HSDAVFTDNYTRLRKQVAAKKYAQSIKNKRYGGPSSGAPPPS [Agonist P235]
Result: Yes

Problem: Is the recorded value of Rat Serum Stability (estimated purity in % after 18 hours) equal to or greater than 0.2% for this substance? Hexanoyl-HSDAVFTDNYTRLQKQVAAK[Aib]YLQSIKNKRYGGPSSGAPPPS [Agonist P251]
Result: Yes

Problem: Is the recorded value of Rat Serum Stability (estimated purity in % after 18 hours) equal to or greater than 0.2% for this substance? Hexanoyl-HSDALFTDNYTRLRKQVAAKKYLQSIKNKRYGGPSSGAPPPS [Agonist P289]
Result: No

Problem: Is the recorded value of Rat Serum Stability (estimated purity in % after 18 hours) equal to or greater than 0.2% for this substance? Hexanoyl-HVDAVFTDNYTRLRKQVAAKKYLQSIKNKRYGGPSSGAPPPS [Agonist P99]
Result: Yes

====

- ASSAY OVERVIEW: Rat serum stability studies (remaining active peptide by DiscoveRx cAMP on CHO-VPAC2 cells)
- Format: in vitro ADME
Where no end group is shown, it is not given here. [ ]: non-standard residue; d: D form. The star is where a group is joined. Orn = NCCC[C@H](N)C(=O)O; Hexanoyl = CCCCCC(=O)*; Aib = CC(C)(N)C(=O)O
Some substances, each annotated with its measured Rat Serum Stability (Estimated purity in % after 72 hours).
Please give a number only; it is taken to be in %.

Past entries and their recorded results:
> print(dat)
                                  substance  unit.string  value
1  Hexanoyl-HSDAVFTDNYTRL[Aib]KQLAA[Aib]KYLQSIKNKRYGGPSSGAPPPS [Agonist P240]            %   10.4
2  Hexanoyl-HSDAVFTDNYT[Orn]LR[Aib]QVAA[Aib]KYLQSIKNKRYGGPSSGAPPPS [Agonist P344]            %   43.0
3  Hexanoyl-HSDAVFTDNYTRLR[Aib]QVAAK[Aib]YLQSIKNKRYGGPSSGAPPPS [Agonist P264]            %    0.9

Problem: Look up and report measured Rat Serum Stability (Estimated purity in % after 72 hours) for this entry: Hexanoyl-HSDAVFTDNYTRLL[Aib]QVAA[Aib]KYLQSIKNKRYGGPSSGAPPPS [Agonist P317]
Result: 21.5

Problem: Look up and report measured Rat Serum Stability (Estimated purity in % after 72 hours) for this entry: Hexanoyl-HSDAVFTDNYTR[Aib]R[Aib]QVAA[Aib]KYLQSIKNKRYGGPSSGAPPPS [Agonist P346]
Result: 27.6
